These data points were gathered from paper PMC3294036.

- TESTED_ON: calcineurin (CN)
- EXPERIMENT_DESCRIPTION: Calcineurin-AKAP79 competitive binding assay
- Design: species or system human
- TEST_CONTEXT: read-out: estimated Ki, competition with fluorescent PVIVIT peptide for binding to CN; GST-AKAP79(333–348) fusion proteins (14mer); representative of three experiments
pKi: −log10 of the molar value.
READOUT: pKi

(P) PAAIIIT
(Q) AIAIIIT
Hey, which is lower on measured pKi, P or Q ? Label of pick, please.
P
